testSystem: (MOUSE)NAT2*1 (Mus musculus, UniProt P50295)
Construct: made in house
Sequence (P50295 1-290): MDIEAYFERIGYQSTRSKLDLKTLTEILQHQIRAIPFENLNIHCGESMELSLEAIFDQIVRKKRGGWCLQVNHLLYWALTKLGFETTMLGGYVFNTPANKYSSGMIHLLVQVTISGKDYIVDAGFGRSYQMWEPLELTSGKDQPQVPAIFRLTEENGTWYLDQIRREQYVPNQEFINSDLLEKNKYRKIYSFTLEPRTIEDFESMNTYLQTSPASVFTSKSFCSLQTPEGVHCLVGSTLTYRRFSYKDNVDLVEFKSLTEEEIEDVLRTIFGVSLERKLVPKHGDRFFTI
experiment: Substrate specific N-acetylation profile
Format: biochemical
condition: substrate 500 μM, relative to substrate with highest specific activity (100%), mean of 3 ± SD
experimentalEndpoint: % specific activity values (%)
State the answer as a number, implicitly in %.

Cc1cc(C)nc(NS(=O)(=O)c2ccc(N)cc2)n1 [SMZ, sulfamethazine]    4
COc1ccc(N)cc1OC [4AV, 4-aminoveratrole]    90

Now for a further compound.
## Task Test system (MOUSE)NAT2*1 (Mus musculus, UniProt P50295); read-out % specific activity values; what value for Nc1ccc(C(=O)O)cc1 [4ABA, 4-aminobenzoic acid] ?
## Result 100

* * *

% specific activity values overview
testSystem: (MOUSE)NAT2_F125S (Mus musculus, UniProt P50295, F125S)
Construct: His tag (only implied by Ni-NTA purification) (cleaved yes); made in house; host or cells: E. coli Rosetta(DE3)pLysS
experiment: Substrate specific N-acetylation profile
Type: biochemical
condition: (MOUSE)NAT2 F125S; substrate 500 μM; relative to substrate with highest specific activity (100%); mean of 3 ± SD
State the answer as a number, implicitly in %.

Recorded % specific activity values, per entry:
CCCCCCOc1ccc(N)cc1    47
NNC(=O)c1ccncc1    38

Now for a further compound.
## Task Give the measured % specific activity values of Nc1ccc(C(=O)O)cc1 .
## Result 70

* * *

testSystem: (MOUSE)NAT2*1 (Mus musculus)
Construct: made in house
experiment: Substrate specific N-acetylation profile
Format: biochemical
condition: substrate 500 μM, relative to substrate with highest specific activity (100%), mean of 3 ± SD
% specific activity values overview
State the answer as a number, implicitly in %.

Nc1ccc(O)c(C(=O)O)c1 [5AS, 5-aminosalicylate]    37

## Task Test system (MOUSE)NAT2*1 (Mus musculus); read-out % specific activity values; what value for NNc1nncc2ccccc12 [HDZ, hydralazine] ?
## Result 8

* * *

testSystem: (MOUSE)NAT2_F125S (Mus musculus, UniProt P50295, F125S)
Construct: His tag (only implied by Ni-NTA purification) (cleaved yes); made in house; host or cells: E. coli Rosetta(DE3)pLysS
Sequence (P50295 1-290 F125S): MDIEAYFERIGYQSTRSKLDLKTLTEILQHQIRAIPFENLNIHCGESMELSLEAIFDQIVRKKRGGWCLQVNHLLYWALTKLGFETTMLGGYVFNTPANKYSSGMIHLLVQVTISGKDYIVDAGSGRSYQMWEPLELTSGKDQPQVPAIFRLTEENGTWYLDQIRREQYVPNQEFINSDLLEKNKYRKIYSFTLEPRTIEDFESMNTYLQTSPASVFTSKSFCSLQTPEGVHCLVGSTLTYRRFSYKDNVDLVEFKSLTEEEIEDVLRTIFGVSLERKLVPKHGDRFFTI
experiment: Substrate specific N-acetylation profile
Assay type: biochemical
condition: (MOUSE)NAT2 F125S; substrate 500 μM; relative to substrate with highest specific activity (100%); mean of 3 ± SD
experimentalEndpoint: % specific activity values (%)
State the answer as a number, implicitly in %.

Recorded % specific activity values, per entry:
Nc1ccc(Cl)cc1 [4CA, 4-chloroaniline]    56
Nc1ccc(Oc2ccccc2)cc1 [POA, 4-phenoxyaniline]    62
Nc1ccc(C(=O)N[C@@H](CCC(=O)O)C(=O)O)cc1 [4ABglu, 4-aminobenzoyl glutamate]    19
NNc1nncc2ccccc12 [HDZ, hydralazine]    19
Nc1ccc(Br)cc1 [4BA, 4-bromoaniline]    47

## Task Give the measured % specific activity values of Nc1ccc(C(=O)O)c(O)c1 [4AS, 4-aminosalicylate] .
## Result 75

## Task Give the measured % specific activity values of Nc1ccc(I)cc1 [4IA, 4-iodoaniline] .
## Result 69

## Task Give the measured % specific activity values of Nc1ccc(O)c(C(=O)O)c1 [5AS, 5-aminosalicylate] .
## Result 74

## Task Give the measured % specific activity values of Cc1cc(C)nc(NS(=O)(=O)c2ccc(N)cc2)n1 [SMZ, sulfamethazine] .
## Result 1

## Task Give the measured % specific activity values of COc1ccc(N)cc1 [ANS, 4-methoxyaniline] .
## Result 100

## Task Give the measured % specific activity values of COc1ccc(N)cc1OC [4AV, 4-aminoveratrole] .
## Result 90

* * *

testSystem: (MOUSE)NAT2_R127G (Mus musculus, UniProt P50295, R127G)
Construct: made in house
Sequence (P50295 1-290 R127G): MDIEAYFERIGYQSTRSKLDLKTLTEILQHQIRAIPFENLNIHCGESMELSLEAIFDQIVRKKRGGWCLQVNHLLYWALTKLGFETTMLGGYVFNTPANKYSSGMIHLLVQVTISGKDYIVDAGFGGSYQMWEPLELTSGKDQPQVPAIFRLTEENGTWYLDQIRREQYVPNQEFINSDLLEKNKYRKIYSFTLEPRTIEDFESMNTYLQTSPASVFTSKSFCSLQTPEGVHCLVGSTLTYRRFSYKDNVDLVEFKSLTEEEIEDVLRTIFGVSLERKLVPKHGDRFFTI
experiment: Substrate specific N-acetylation profile
Assay type: biochemical
condition: (MOUSE)NAT2 R127G; substrate 500 μM; relative to substrate with highest specific activity (100%); mean of 3 ± SD
Recorded % specific activity values split into classes low class (below 30%), middle class (30% to below 70%), high class (70% or more)

Record excerpt, results attached:
CCCCCCOc1ccc(N)cc1 [HOA, 4-hexyloxyaniline]    middle class
Nc1ccc(Oc2ccccc2)cc1 [POA, 4-phenoxyaniline]    middle class
NNC(=O)c1ccncc1 [INH, isoniazid]    middle class
Nc1ccc(C(=O)O)c(O)c1 [4AS, 4-aminosalicylate]    low class

Now for another entry.
## Task Classify this compound: Nc1ccc(O)c(C(=O)O)c1 [5AS, 5-aminosalicylate]
## Result high class

* * *

% specific activity values overview
testSystem: (MOUSE)NAT2_R127L (Mus musculus, UniProt P50295, R127L)
Construct: made in house
experiment: Substrate specific N-acetylation profile
Type: biochemical
condition: (MOUSE)NAT2 R127L; substrate 500 μM; relative to substrate with highest specific activity (100%); mean of 3 ± SD

Recorded % specific activity values, per entry:
Nc1ccc(O)c(C(=O)O)c1 [5AS, 5-aminosalicylate]    65 ± 9%
Nc1ccc(Oc2ccccc2)cc1    61 ± 2%
NNc1nncc2ccccc12 [HDZ, hydralazine]    95 ± 1%
Nc1ccc(C(=O)N[C@@H](CCC(=O)O)C(=O)O)cc1 [4ABglu, 4-aminobenzoyl glutamate]    8 ± 1%

## Task Give the measured % specific activity values of Nc1ccc(C(=O)O)cc1 .
## Result 8 ± 1%

## Task Give the measured % specific activity values of Nc1ccc(Cl)cc1 .
## Result 70 ± 1%

## Task Give the measured % specific activity values of COc1ccc(N)cc1OC .
## Result 100 ± 10%

## Task Give the measured % specific activity values of Nc1ccc(C(=O)O)c(O)c1 [4AS, 4-aminosalicylate] .
## Result 13 ± 1%

* * *

testSystem: (MOUSE)NAT1*1 (Mus musculus, UniProt P50294)
Construct: The open reading frame of (MOUSE)Nat1*1 [32] was subcloned; hexa-His (N, cleaved yes); made in house; host or cells: Escherichia coli BL21(DE3)CodonPlus-RIL
Sequence (P50294 1-290): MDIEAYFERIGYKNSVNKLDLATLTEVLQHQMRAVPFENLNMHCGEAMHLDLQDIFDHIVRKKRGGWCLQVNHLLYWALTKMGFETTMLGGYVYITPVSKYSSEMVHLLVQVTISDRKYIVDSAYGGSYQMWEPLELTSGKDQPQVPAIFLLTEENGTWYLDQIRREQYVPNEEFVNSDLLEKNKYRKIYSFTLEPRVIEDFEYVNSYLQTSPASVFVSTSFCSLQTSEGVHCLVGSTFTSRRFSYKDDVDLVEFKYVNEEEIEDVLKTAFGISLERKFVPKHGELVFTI
experiment: Substrate specific N-acetylation profile
Format: biochemical
condition: substrate 500 μM, relative to substrate with highest specific activity (100%), mean of 3 ± SD
experimentalEndpoint: % specific activity values
Provide a numeric answer, followed by its unit.

Recorded % specific activity values, per entry:
NNC(=O)c1ccncc1    100 ± 6%
Nc1ccc(O)c(C(=O)O)c1 [5AS, 5-aminosalicylate]    76 ± 6%
CCCCCCOc1ccc(N)cc1    3 ± 4%

## Task Test system (MOUSE)NAT1*1 (Mus musculus, UniProt P50294); read-out % specific activity values; what value for Nc1ccc(C(=O)N[C@@H](CCC(=O)O)C(=O)O)cc1 [4ABglu, 4-aminobenzoyl glutamate] ?
## Result 8 ± 7%

## Task Test system (MOUSE)NAT1*1 (Mus musculus, UniProt P50294); read-out % specific activity values; what value for Cc1cc(C)nc(NS(=O)(=O)c2ccc(N)cc2)n1 ?
## Result 88 ± 6%
